# Experimental System: glucose-6-phosphate dehydrogenase-6-phosphogluconolactonase (PfGluPho) [Plasmodium falciparum 3D7]
# Test Description: inhibition of P. falciparum G6PD rate – biochemical, kinetic direct NADPH detection, set 3, orthogonal assay for PfG6PD antimalarial inhibitor project, SAR follow-up (AID 602425)
# Run Conditions: recombinant PfG6PDH, direct NADPH fluorescence kinetic
Calls of active or inactive are those of the source.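 Rule for the calls: active = IC50 of 80 µM or lower; inactive = the rest.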
Write down one outcome, taken from class 1 for active, class 0 for inactive

| Compound | Answer Label |
| --- | --- |
| CCN1CCC(NC(=O)c2ccc3c(c2)NC(=O)c2ccccc2S3)C1 (configuration not stated) | class 0 |
| CN1CCCCC1CNC(=O)c1ccc2c(c1)NC(=O)c1ccccc1S2 (configuration not stated) | class 1 |
| O=C(NCC1CCCCN1)c1ccc2c(c1)NC(=O)c1ccccc1S2 (configuration not stated) | class 1 |
| CN1CCC(NC(=O)c2ccc3c(c2)NC(=O)c2ccccc2S3)C1 (configuration not stated) | class 0 |
| CCCCN1CCCC1CNC(=O)c1ccc2c(c1)NC(=O)c1ccccc1S2 (configuration not stated) | class 1 |
| O=C(NC[C@H]1CCCN1)c1ccc2c(c1)NC(=O)c1ccccc1S2 | class 1 |
| CCN1CCC[C@@H]1CNC(=O)c1ccc2c(c1)NC(=O)c1cc(F)ccc1S2 | class 1 |
| CCN1CCCCC1CNC(=O)c1ccc2c(c1)NC(=O)c1ccccc1S2 (configuration not stated) | class 0 |
| CN1CCCC1CNC(=O)c1ccc2c(c1)NC(=O)c1ccccc1S2 (configuration not stated) | class 1 |
| CCN1CCC[C@@H]1CNC(=O)c1ccc2c(c1)NC(=O)c1ccccc1N2 | class 0 |

INPUT: Just curious, what result did CCCN1CCC[C@@H]1CNC(=O)c1ccc2c(c1)NC(=O)c1ccccc1S2 get here?
OUTPUT: class 1

INPUT: Can you look up the reported call for CCN1CCC[C@@H]1CNC(=O)c1ccc2c(c1)NC(=O)c1ccc(F)cc1S2 for me?
OUTPUT: class 1

INPUT: Per the assay record, what outcome was assigned to CCCCCCN1CCCC1CNC(=O)c1ccc2c(c1)NC(=O)c1ccccc1S2 (configuration not stated) ?
OUTPUT: class 1

INPUT: How was CCN1CCC[C@@H]1CNC(=O)c1ccc2c(c1)NC(=O)c1cc(C)ccc1S2 classified in this test?
OUTPUT: class 1

INPUT: Just curious, what result did CCN1CCC[C@@H]1CNC(=O)c1ccc2c(c1)NC(=O)c1cccc(C)c1S2 get here?
OUTPUT: class 1

INPUT: Entry CCCN1CCCCC1CNC(=O)c1ccc2c(c1)NC(=O)c1ccccc1S2 (configuration not stated) : call = ?
OUTPUT: class 1

INPUT: Outcome logged for CCCN1CCC(NC(=O)c2ccc3c(c2)NC(=O)c2ccccc2S3)C1 (configuration not stated) in this assay:
OUTPUT: class 0
